molecular target: Urease subunit alpha/Urease subunit beta (Helicobacter pylori (strain ATCC 700392 / 26695) (Campylobacterpylori)); experiment: Inhibition of Helicobacter pylori urease
Sequence (P69996 whole entry): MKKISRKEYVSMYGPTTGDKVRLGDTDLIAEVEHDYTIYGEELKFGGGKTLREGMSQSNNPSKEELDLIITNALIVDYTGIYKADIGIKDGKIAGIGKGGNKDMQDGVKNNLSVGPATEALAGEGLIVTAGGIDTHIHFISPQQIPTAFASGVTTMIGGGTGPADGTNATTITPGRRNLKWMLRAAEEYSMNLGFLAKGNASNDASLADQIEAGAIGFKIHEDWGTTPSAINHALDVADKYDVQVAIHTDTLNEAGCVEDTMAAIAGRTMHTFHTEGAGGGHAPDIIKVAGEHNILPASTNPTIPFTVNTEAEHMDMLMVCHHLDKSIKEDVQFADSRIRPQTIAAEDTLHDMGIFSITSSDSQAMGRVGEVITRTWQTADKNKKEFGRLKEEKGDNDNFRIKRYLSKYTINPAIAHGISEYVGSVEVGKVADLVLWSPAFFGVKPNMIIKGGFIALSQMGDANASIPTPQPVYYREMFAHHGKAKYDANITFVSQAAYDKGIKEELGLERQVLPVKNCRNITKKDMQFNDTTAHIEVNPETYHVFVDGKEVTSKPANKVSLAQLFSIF
Sequence (P14916 whole entry, further chain): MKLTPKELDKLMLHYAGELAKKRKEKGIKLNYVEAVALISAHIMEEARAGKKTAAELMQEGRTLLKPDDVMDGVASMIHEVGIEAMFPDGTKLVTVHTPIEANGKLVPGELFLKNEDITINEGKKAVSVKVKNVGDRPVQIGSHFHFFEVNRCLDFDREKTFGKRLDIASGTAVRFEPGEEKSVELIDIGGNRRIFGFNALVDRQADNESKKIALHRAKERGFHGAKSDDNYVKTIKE
pIC50: −log10 of the molar value.
The label depends only on pIC50: 1 if it is at least 5, -1 if it is smaller.

{"columns": ["MOLECULE", "CATEGORY_LABEL"],
 "data": [
  ["Cc1ccccc1S(=O)(=O)N(CC(=O)NO)c1cccc([N+](=O)[O-])c1", 1],
  ["O=C(CN(c1cccc([N+](=O)[O-])c1)S(=O)(=O)c1ccccc1F)NO", 1],
  ["O=C(CN(c1cccc([N+](=O)[O-])c1)S(=O)(=O)c1ccc(Br)cc1)NO", 1]
]}

Query :: Is the recorded value of pIC50 equal to or greater than 5 for this molecule? O=C(CN(c1cccc([N+](=O)[O-])c1)S(=O)(=O)c1cccc(F)c1)NO
Result :: 1

Query :: Then this molecule: CC(=O)NO [ACETOHYDROXAMIC ACID]
Result :: -1
